target: T1, human PD-1 expressed on cells (human, UniProt Q15116 25-288); assay: flow cytometry, hPD1-Jurkat cells
T1 construct: whole, on cells
T1 sequence (Q15116 25-288): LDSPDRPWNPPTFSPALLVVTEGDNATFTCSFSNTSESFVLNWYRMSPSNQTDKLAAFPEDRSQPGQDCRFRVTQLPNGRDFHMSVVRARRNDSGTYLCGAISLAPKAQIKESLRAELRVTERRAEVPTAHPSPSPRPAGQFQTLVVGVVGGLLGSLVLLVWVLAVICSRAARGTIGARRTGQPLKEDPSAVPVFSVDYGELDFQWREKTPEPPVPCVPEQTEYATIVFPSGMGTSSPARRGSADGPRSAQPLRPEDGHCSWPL
Assignment: determine reported MFI at 5 nM for the given binders.
Answers are plain numbers, in MFI.

INSERT INTO measurements (binder, result_unit, assay_result) VALUES
  ('24H9 (antibody, human IgG1, V domains shown) VH: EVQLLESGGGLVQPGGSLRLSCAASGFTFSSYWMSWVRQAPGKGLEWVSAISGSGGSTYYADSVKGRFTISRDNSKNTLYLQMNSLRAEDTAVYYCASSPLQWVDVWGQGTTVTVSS VL: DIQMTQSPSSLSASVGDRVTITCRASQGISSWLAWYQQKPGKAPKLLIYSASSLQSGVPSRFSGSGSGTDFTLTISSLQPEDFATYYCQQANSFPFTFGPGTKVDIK', 'MFI', 80.6);

For each listed entry, give its MFI at 5 nM.
1. 33C4 (antibody, V domains shown, also called 780_39) VH: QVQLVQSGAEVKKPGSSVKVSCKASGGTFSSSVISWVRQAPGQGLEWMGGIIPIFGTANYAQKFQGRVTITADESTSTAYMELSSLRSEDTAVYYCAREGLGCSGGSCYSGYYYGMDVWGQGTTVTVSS VL: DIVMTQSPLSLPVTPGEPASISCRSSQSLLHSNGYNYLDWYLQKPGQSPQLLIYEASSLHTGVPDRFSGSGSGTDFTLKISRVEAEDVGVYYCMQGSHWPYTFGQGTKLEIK
2. 38B2 (antibody, V domains shown, 24H9 derivative, IgG; also called 780_54; hPD1 Ab (38B2)) VH: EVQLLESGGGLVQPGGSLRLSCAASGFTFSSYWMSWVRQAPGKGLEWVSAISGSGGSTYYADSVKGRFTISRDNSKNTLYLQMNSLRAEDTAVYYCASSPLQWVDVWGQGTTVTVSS VL: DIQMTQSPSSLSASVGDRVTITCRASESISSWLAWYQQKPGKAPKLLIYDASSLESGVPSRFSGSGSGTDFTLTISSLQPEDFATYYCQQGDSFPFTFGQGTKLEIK
3. 31B1 (antibody, V domains shown, also called 780_38; 33B1 and 31B2 (apparent misprints)) VH: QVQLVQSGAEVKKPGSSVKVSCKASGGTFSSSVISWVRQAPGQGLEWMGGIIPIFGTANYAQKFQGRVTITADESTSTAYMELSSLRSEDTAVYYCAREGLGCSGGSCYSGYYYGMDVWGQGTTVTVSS VL: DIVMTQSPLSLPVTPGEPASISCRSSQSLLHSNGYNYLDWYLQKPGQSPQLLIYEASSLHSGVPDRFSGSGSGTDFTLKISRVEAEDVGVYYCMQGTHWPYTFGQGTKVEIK
4. 38A6 (antibody, V domains shown, also called 780_46) VH: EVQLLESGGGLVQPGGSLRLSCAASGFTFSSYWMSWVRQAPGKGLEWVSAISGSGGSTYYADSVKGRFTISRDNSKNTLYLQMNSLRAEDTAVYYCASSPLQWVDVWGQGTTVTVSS VL: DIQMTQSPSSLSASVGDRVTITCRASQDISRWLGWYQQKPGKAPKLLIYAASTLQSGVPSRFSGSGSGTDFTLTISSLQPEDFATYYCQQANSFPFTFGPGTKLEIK

[98.3, 91, 91.6, 89.5]
